assay: non-covalent RecA intein splicing inhibitors, dose response, biochemical, cell-free, fluorescence, secondary screen (AID 449750)
Activity calls are given as the source filed them. The rule behind the calls is not given here.
Classes used: active, inactive

>>> answer_label("COc1ccc(NC(=O)/C(Cl)=C(/Cl)S(=O)Cc2ccccc2)cn1 (stereo unspecified)")
"inactive"
>>> answer_label("CCn1c(Cl)c(C=O)s/c1=N\\S(=O)(=O)c1ccccc1")
"active"
>>> answer_label("CC1=NN(c2nc(-c3ccccc3)cs2)C(=O)C1")
"active"
>>> answer_label("O=C1c2ccccc2-n2c1nc1ccccc1c2=O")
"inactive"
>>> answer_label("Oc1[nH]c(=S)sc1C=C1N=c2ccccc2=N1")
"inactive"
>>> answer_label("CCc1ccc(S(=O)(=O)/N=C2\\C=C(Nc3cccc(C(=O)O)c3)C(=O)c3ccccc32)cc1")
"active"
>>> answer_label("O=c1c2ccccc2nc(/C=C/c2cccnc2)n1Cc1ccccc1")
"active"
>>> answer_label("COc1ccc2c(c1)C(=C(C#N)C#N)C(=O)N2CCc1ccccc1")
"inactive"
>>> answer_label("CCCSc1cc(NCCOC(=O)CCC)c([N+](=O)[O-])c2nonc12")
"inactive"
>>> answer_label("CC1CCc2c(c3ccccc3n2C(=O)CCl)C1 (stereo unspecified)")
"active"
>>> answer_label("O=C(O)c1ccccc1-c1ccccc1C(=O)Nc1ccc(-c2nc3cc(Cl)ccc3o2)cc1")
"active"

----------
experiment: non-covalent RecA intein splicing inhibitors, dose response, biochemical, cell-free, fluorescence, secondary screen (AID 449750)
The source made the active and inactive calls. No rule for the calls is given here.
Outcomes: TRUE (active), FALSE (inactive)

>>> answer_label("c1ccc(-c2nc(N3CCCCCC3)nc(-n3ccnc3)n2)cc1")
"FALSE"
>>> answer_label("CC(=O)N(C1=C(Cl)C(=O)c2ccccc2C1=O)C1CCCCC1")
"TRUE"
>>> answer_label("O=C1CC(c2ccccc2)=NN1c1ccc([N+](=O)[O-])cc1")
"TRUE"
>>> answer_label("Cc1cccc(NC(=S)N/N=C2/CCCCc3ccccc32)c1")
"FALSE"
>>> answer_label("COCc1[nH]nc2c1C(c1ccc(OC)c(OC)c1)C(C#N)=C(N)O2 (stereo unspecified)")
"FALSE"
>>> answer_label("O=C(CCl)Nc1c2c(nn1-c1ccccc1)CSC2")
"TRUE"
>>> answer_label("CCCCCC(=O)Cc1cc(O)cc2c1C(=O)Oc1cc(O)c(C(=O)O)c(CCCCC)c1O2")
"TRUE"
>>> answer_label("Cc1[nH]nc2c1C1(CCC(c3ccccc3)CC1)C(C#N)=C(N)O2 (stereo unspecified)")
"FALSE"
>>> answer_label("O=c1c(Cl)nc2cc(Cl)ccc2n1CCNc1ncc(C(F)(F)F)cc1Cl")
"FALSE"
>>> answer_label("CCOc1ccc(S(=O)(=O)NCc2cccnc2)cc1C")
"FALSE"
>>> answer_label("Cc1ccc(Sc2ccc(NC(=O)CCl)cc2)cc1C")
"TRUE"

----------
assay: non-covalent RecA intein splicing inhibitors, dose response, biochemical, cell-free, fluorescence, secondary screen (AID 449750)
Activity calls are given as the source filed them. How the calls were made is not given here.
Labels: Yes (active), No (inactive)

>>> answer_label("Oc1ccc(N=Cc2sc3ccccc3c2Cl)cc1")
"No"
>>> answer_label("COc1ccc(-c2csc(Nc3ccc(O)cc3)n2)cc1")
"No"
>>> answer_label("COc1ccc(OC)c(Nc2cc3ccccc3c(=O)[nH]2)c1")
"Yes"
>>> answer_label("CCN(CC)S(=O)(=O)c1cc(NC(=O)Cn2ncc(Cl)c(Cl)c2=O)ccc1C")
"Yes"
>>> answer_label("O=c1c(Cl)c(Cl)cnn1Cc1ccc(F)cc1")
"Yes"
>>> answer_label("CCCc1[nH]nc2c1C(c1ccc(OC)c(CSC3=NCCS3)c1)C(C#N)=C(N)O2 (stereo unspecified)")
"Yes"
>>> answer_label("CCCCCc1c2c(cc(O)c1C(=O)O)OC(=O)c1c(cc(OC)cc1C(=O)CCCC)O2")
"Yes"
>>> answer_label("Cn1c(SCC(=O)NCc2ccc(F)cc2)nc2ccccc21")
"No"
>>> answer_label("CC1CC(C)CN(C(=O)c2ccc3c(c2)N(Cc2ccccc2)CCS3)C1 (stereo unspecified)")
"Yes"
>>> answer_label("CN1CCN(C(c2ccc(Cl)cc2)c2cc(Cl)c3cccnc3c2O)CC1 (stereo unspecified)")
"Yes"
>>> answer_label("COc1ccc(-c2cc(=O)[nH][nH]2)cc1")
"Yes"
